system: SF-295 CNS; test: NCI-60 one-dose screen, 48 h; details: 10 µM unless noted
Compounds without any hit were thinned out: in the full panel of roughly 83,000, 20% have a hit. The source made the active and inactive calls. Rule for the calls: active = growth percent below 10; inactive = the rest.
Lab note: assign the record to one of label 1 for active, label 0 for inactive

Completed entries (count: 3):
CCOc1cccc(/C=N/NC(=O)c2cccc(Nc3ccnc(C(F)(F)F)c3)c2)c1O    label 0
COc1ccc(Oc2nc(Nc3ccc(N4CCOCC4)cc3)ncc2NC(=O)Nc2cc(OC)cc(OC)c2)cc1    label 0
CCN(CC)CCCN1C(=O)c2c(c(C)c3c(oc4ccc(O)cc43)c2C)C1=O    label 0

I would be grateful if you could indicate the recorded call for O=C(CC(=O)Nc1cccc(C(=O)O)c1)Nc1cccc(C(=O)O)c1 .
label 0

I would be grateful if you could indicate the recorded call for CC1=CC(c2ccco2)=C2C(N)=NNC2N1 (configuration not stated) .
label 0

---

tested on: SK-OV-3 ovarian; experiment: NCI-60 one-dose screen, 48 h (100 = growth as untreated, 0 = no growth, -100 = all killed); details: 10 µM unless noted
About 83,000 compounds went through this panel and 20% of them were active in at least one assay; those are over-represented in the sample as a whole.
This section presents molecules with their documented growth values.
Note: unit % is implicit; provide only the numeric part.

C=C1C(=O)O[C@H]2[C@H]1CC/C(CNC(=O)c1c[nH]c3ccc(F)cc13)=C\CC[C@@]1(C)O[C@@H]21    81.7
CCCCCCCCCCCCCCCCCCOc1ccccc1CC(=O)NCC[N+]1(C)CCCCC1    77
Cc1nc2sc(C(=O)Nc3cccc(Br)c3C)c(N)c2cc1C(O)c1ccccc1 (stereo not given)    11.4
O=C(O)COc1ccc(Cl)c(Cl)c1    105

Field: next molecule
Return reported growth. Input molecule: COc1ccc(/C=C/c2ccc3ccccc3n2)c(OC)c1
88.6

---

test system: MALME-3M melanoma; assay: NCI-60 one-dose screen, 48 h (100 = growth as untreated, 0 = no growth, -100 = all killed); conditions: 10 µM unless noted
Compounds without any hit were thinned out: in the full panel of roughly 83,000, 20% have a hit.
MEASUREMENT NAME: growth (%)
Note: unit % is implicit; provide only the numeric part.

In the examples that follow, each entry is paired with its recorded growth.
O=C1NC(=O)/C(=C/c2c(-c3ccccc3)nc3sc(COc4ccccc4)nn23)S1    102
CC(C)(C)n1cc(-c2ccnc(NCCCNS(=O)(=O)c3cccc4ccccc34)c2)c(-c2cccc(F)c2)n1    113
N#Cc1nc(-c2ccccc2)oc1S(=O)(=O)N1CCN(c2ccc(F)cc2)CC1    51.8

Return reported growth. Input molecule: O=C(CCCCCNC(=O)c1cc(=O)c(O)co1)Nc1ccccc1
102

Return reported growth. Input molecule: Cc1nc2c(=O)nc3s/c(=C\c4ccco4)c(=O)n3c2nc1C
82.1

Return reported growth. Input molecule: O=C(Cn1nnc2ccccc21)N/N=C/c1c[nH]c2ccccc12
61

Return reported growth. Input molecule: OCCNCCNC(Cc1ccc(Cl)cc1)c1ccccc1 (stereo not given)
107

Return reported growth. Input molecule: CCN1CCN(c2cc(C)nc(N(CCNc3ccnc4cc(Cl)ccc34)Cc3ccc4c(c3)OCO4)n2)CC1
-65.8

Return reported growth. Input molecule: O=C(O)[C@@H](Cc1ccc2ccccc2c1)NC(=O)n1c2ccccc2c2ccccc21
22

Return reported growth. Input molecule: COc1cc(/C=N/Nc2ccc(Br)cc2)cc(OC)c1OC
55.5
